Test system: MDCK cells
SETTINGS: dog, 72 h
Form field: CC0 (maximal non-cytotoxic concentration) (one value per entry).
State just the number; it will be interpreted in µg/mL.

Please review the following examples before continuing.
Oc1cc(O)cc(/C=C/c2ccccc2)c1: 10
COC(=O)c1cc(O)c(O)c(O)c1 [Methyl gallate]: 30
O=C(O[C@@H]1O[C@@H]2COC(=O)c3cc(O)c(O)c(O)c3-c3c(cc(O)c(O)c3O)C(=O)O[C@H]([C@H]1O)[C@@H]2O)c1cc(O)c(O)c(O)c1: 30
O=C(Oc1cc(O)c2c(c1)O[C@H](c1cc(O)c(O)c(O)c1)[C@@H](O)C2)c1cc(O)c(O)c(O)c1: 100
O=c1cc(-c2ccccc2)oc2c(O)c(O)cc(O)c12: 30
C/C=C/C(=O)c1c(O)c2c(c3c(-c4ccccc4)cc(=O)oc13)OC(C)(C)C=C2: 30

Then there is this compound:
Task item: Given the entry COc1cc(/C=C/c2cc(O)cc(O)c2)ccc1O , report its measured CC0 (maximal non-cytotoxic concentration).
Reply: 30
